The compounds listed here are annotated with their MIC.
Test system: Escherichia coli
Assay: Inhibition of beta-lactamase activity in Escherichia coli ARC3627 assessed as MIC for cefpodoxime antibacterial activity at 4 ug/ml by CLSI based broth dilution method (Rvb >64 ug/ml)
Settings: dose 4.0 µg/ml

Example compounds with recorded MIC:
- COMPOUND: "CC1=C[C@@H]2CN(C(=O)N2OS(=O)(=O)O)[C@@H]1C(N)=O"
  MIC: "< 0.06 µg/mL"
- COMPOUND: "CC1=C[C@@H]2CN(C(=O)N2O[C@H](F)C(=O)O)[C@@H]1C(N)=O"
  MIC: "0.06 µg/mL"
- COMPOUND: "CC1=C[C@@H]2CN(C(=O)N2O[C@@H](F)C(=O)O)[C@@H]1C(=O)NCCNS(N)(=O)=O"
  MIC: "< 0.06 µg/mL"
- COMPOUND: "NC(=O)[C@@H]1CC[C@@H]2CN1C(=O)N2OS(=O)(=O)O [AVIBACTAM]"
  MIC: "0.5 µg/mL"
- COMPOUND: "CC1=C[C@@H]2CN(C(=O)N2OCC(=O)O)[C@@H]1C(N)=O"
  MIC: "4 µg/mL"

Here is the next item to consider.
Would you kindly share the measured MIC for CC1=C[C@@H]2CN(C(=O)N2O[C@@H](F)C(=O)O)[C@@H]1C(=O)NOCC1CC1 ? 16 µg/mL

====

Test: Inhibition of beta lactamase AmpC in Pseudomonas aeruginosa assessed as decrease in enzyme activity using nitrocefin as chromogenic substrate incubated for 10 mins by […] plate reader analysis
pIC50 values for the molecules below.
Answer as the number alone; pIC50 is minus log10 of concentration in mol/L.

The following molecules have reported results that may help.
- MOLECULE: "CC1=C[C@@H]2CN(C(=O)N2OC(C)(F)C(=O)O)[C@@H]1C(N)=O (stereo partly drawn)"
  pIC50: 5.85
- MOLECULE: "CC1=C[C@@H]2CN(C(=O)N2O[C@@H](F)C(=O)O)[C@@H]1C(=O)NOCC1CC1"
  pIC50: 6.15

Query molecule follows.
Look up pIC50: CC1=C[C@@H](C(N)=O)N2C[C@@H]1N(O[C@@H](F)C(=O)O)C2=O (racemic) 5.89

These entries and their values trace back to ChEMBL document CHEMBL4765376.
